Assay endpoint: melting point (°C)

# annotated cases, reported melting point shown
* Cc1cc2c(c(C(=O)NC[C@@H]3CCN(CCOc4ccc(C(=O)O)cc4)C[C@H]3O)c1)OCCCO2 | 175
* O=C(O)c1ccc(OCCCN2CCC(CNC(=O)c3cc(Cl)cc4c3OCCCO4)C(O)C2)cc1 (centres unmarked) | 122

A. Cc1ccc(C(=O)NC[C@@H]2CCN(CCCCOc3ccc(C(=O)O)cc3)C[C@H]2O)c2c1OCCCO2
B. Cc1cc2c(c(C(=O)NC[C@@H]3CCN(CCCOc4ccccc4C(=O)O)C[C@H]3O)c1)OCCCO2
Lower melting point: A or B ? # answer = label of selected item B
(B: 114 °C, A: 170 °C)

====

Where a name gives a salt, the structure may show the parent alone.
Assay endpoint: melting point (°C)

* Cc1cc2c(c(C(=O)NC[C@@H]3CCN(CCCOc4ccc(C(=O)O)cc4)C[C@H]3O)c1)OCCCO2 (relative stereo) | 118
* O=C(O)c1ccc(OCCCCN2CC[C@@H](CNC(=O)c3cc(Cl)cc4c3OCCCO4)[C@H](O)C2)cc1 | 190
* Cc1cc2c(c(C(=O)NCC3CCN(CCCOc4cccc(C(=O)O)c4)CC3O)c1)OCCCO2 (stereo not shown) | 122
* Cc1ccc(C(=O)NC[C@@H]2CCN(CCCOc3cccc(C(=O)O)c3)C[C@H]2O)c2c1OCCCO2 | 120
* Cc1ccc(C(=O)NC[C@@H]2CCN(CCCOc3ccc(C(=O)O)cc3)C[C@H]2O)c2c1OCCCO2 | 155

I. O=C(O)c1ccccc1OCCCN1CC[C@@H](CNC(=O)c2cc(Cl)cc3c2OCCCO3)[C@H](O)C1 (relative stereo)
II. O=C(O)c1ccc(OCCCN2CCC(CNC(=O)c3cc(Cl)c(Cl)c4c3OCCCO4)C(O)C2)cc1 (stereo not shown) (as salt: HCl)
Which of the two items, I and II , has the greater recorded melting point? # answer = label of selected item II
(II: 256 °C, I: 148 °C)

====

Assay endpoint: melting point (°C)

* Cc1cc2c(c(C(=O)NC[C@@H]3CCN(CCCCOc4ccc(C(=O)O)cc4)C[C@H]3O)c1)OCCCO2 | 188
* CO[C@@H]1CN(CCCOc2ccc(C(=O)O)cc2)CC[C@H]1CNC(=O)c1cc(Cl)c(Cl)c2c1OCCCO2 (relative stereo) | 200
